Tested on: HT29 cells
ASSAY_NAME: Cellular uptake of Pt by ICP-MS
Type: cell-based
CONDITION_NOTES: HT29, extracellular 3 µM, 1 h

COMPOUND | Intracellular/extracellular ratio
Cc1cc2cccnc2c2ncccc12.N[C@H]1CCCC[C@@H]1N.O=[N+]([O-])[O-].O=[N+]([O-])[O-].[Pt+2] [Pt^II5MESS] | 197.63
N[C@H]1CCCC[C@@H]1N.O=[N+]([O-])[O-].O=[N+]([O-])[O-].[Pt+2].c1cnc2c(c1)ccc1cccnc12 | 112.44
Cc1c(C)c2cccnc2c2ncccc12.N[C@H]1CCCC[C@@H]1N.O=[N+]([O-])[O-].O=[N+]([O-])[O-].[OH][Pt+2][OH] [Pt^IV56MESS(OH)2] | 43.51

---

Tested on: MDA−MB−231 cells
ASSAY_NAME: Cellular uptake of Pt by ICP-MS
Format: cell-based
CONDITION_NOTES: MDA−MB−231, 3 µM, 0.5 h
Outcome: True for Intracellular Concentration of at least 0.5 nmol/10^6 cells; False for anything lower.

COMPOUND | TARGET_OR_TEST_SYSTEM | CLASS_LABEL
N.N.[Cl][Pt][Cl] [Cisplatin, cisplatin] | MDA−MB−231 cells | False
Cc1cc2cccnc2c2ncccc12.N[C@H]1CCCC[C@@H]1N.O=[N+]([O-])[O-].O=[N+]([O-])[O-].[OH][Pt+2][OH] | MDA−MB−231 cells | False
N[C@H]1CCCC[C@@H]1N.O=[N+]([O-])[O-].O=[N+]([O-])[O-].[OH-].[OH-].[Pt+4].c1cnc2c(c1)ccc1cccnc12 | MDA−MB−231 cells | False
Cc1cc2cccnc2c2ncccc12.N[C@H]1CCCC[C@@H]1N.O=[N+]([O-])[O-].O=[N+]([O-])[O-].[Pt+2] | MDA−MB−231 cells | False
N[C@H]1CCCC[C@@H]1N.O=[N+]([O-])[O-].O=[N+]([O-])[O-].[Pt+2].c1cnc2c(c1)ccc1cccnc12 | MDA−MB−231 cells | False
Cc1c(C)c2cccnc2c2ncccc12.N[C@H]1CCCC[C@@H]1N.O=[N+]([O-])[O-].O=[N+]([O-])[O-].[Pt+2] | MDA−MB−231 cells | True
